System: Salmonella enterica subsp. enterica serovar Typhimurium
assay_info: Inhibition of Salmonella typhimurium T6PP using T6P as substrate assessed as fraction of enzyme unbound with compound by measuring ratio of initial velocities of T6P substrate hydrolysis in presence and absence of compound at 1 mM after 5 mins by BioMol green dye based HTS assay
Hi, to clarify the labels: True covers Ratio from 0.9 upward, False covers anything below 0.9.

Some solved entries appear below for comparison.
chemical_structure	tested_on	assigned_category
O=S(=O)(O)OC[C@H]1O[C@@H](Oc2ccccc2CO)[C@H](O)[C@@H](O)[C@@H]1O	Salmonella enterica subsp. enterica serovar Typhimurium	False
CO[C@H]1O[C@H](COS(=O)(=O)O)[C@@H](O)[C@H](O)[C@H]1OCc1ccccc1	Salmonella enterica subsp. enterica serovar Typhimurium	True
O=S(=O)(O)OC[C@H]1O[C@@H](Oc2ccc(-c3ccccc3)cc2)[C@H](O)[C@@H](O)[C@@H]1O	Salmonella enterica subsp. enterica serovar Typhimurium	False
CO[C@H]1O[C@H](COS(=O)(=O)O)[C@@H](OCc2ccccc2)[C@H](O)[C@H]1O	Salmonella enterica subsp. enterica serovar Typhimurium	True
O=Cc1cccc(O[C@@H]2O[C@H](COS(=O)(=O)O)[C@@H](O)[C@H](O)[C@H]2O)c1	Salmonella enterica subsp. enterica serovar Typhimurium	True
O=S(=O)(O)OC[C@H]1O[C@@H](Oc2ccccc2)[C@H](O)[C@@H](O)[C@@H]1O	Salmonella enterica subsp. enterica serovar Typhimurium	False

Asked: Is Ratio at least 0.9? Consider CO[C@H]1O[C@H](COS(=O)(=O)O)[C@@H](O)[C@H](O)[C@H]1O
Given back: True

Asked: Is Ratio at least 0.9? Consider OC[C@H]1O[C@H](Oc2ccccc2)[C@H](O)[C@@H](O)[C@@H]1O
Given back: True

---

So I've got a bunch of compounds here, and I need their Ratio values.
System: Ascaris suum
assay_info: Inhibition of Ascaris suum T6PP using T6P as substrate assessed as fraction of enzyme unbound with compound by measuring ratio of initial velocities of T6P substrate hydrolysis in presence and absence of compound at 1 mM after 5 mins by BioMol green dye based HTS assay

Below, 5 compounds whose answers are already recorded.
chemical_structure	tested_on	result
CCCCCCCCO[C@@H]1O[C@H](COS(=O)(=O)O)[C@@H](O)[C@H](O)[C@H]1O	Ascaris suum	0.9
O=S(=O)(O)OC[C@H]1O[C@H](O)[C@H](O)[C@@H](O)[C@@H]1O	Ascaris suum	0.94
O=S(=O)(O)OC[C@H]1O[C@@H](Oc2cccc3ccccc23)[C@H](O)[C@@H](O)[C@@H]1O	Ascaris suum	0.91
OC[C@H]1O[C@@H](NC(=S)Nc2ccccc2)[C@H](O)[C@@H](O)[C@@H]1O	Ascaris suum	0.81
Nc1ccc(O[C@@H]2O[C@H](COS(=O)(=O)O)[C@@H](O)[C@H](O)[C@H]2O)cc1	Ascaris suum	0.74

Dear colleague, could you please provide Ratio for the compounds listed below?
1. O=Cc1ccccc1O[C@@H]1O[C@H](COS(=O)(=O)O)[C@@H](O)[C@H](O)[C@H]1O
2. O=S(=O)(O)OC[C@H]1O[C@@H](Oc2cccc(CO)c2)[C@H](O)[C@@H](O)[C@@H]1O

Given back:
1: 0.99; 2: 0.63

Dear colleague, could you please provide Ratio for the compounds listed below?
1. O=S(=O)(O)OC[C@H]1O[C@H](OCc2ccccc2)[C@H](O)[C@@H](O)[C@@H]1O
2. O=S(=O)(O)OC[C@H]1O[C@@H](Oc2ccc(F)c(F)c2)[C@H](O)[C@@H](O)[C@@H]1O
3. OC[C@H]1O[C@@H](n2cc(-c3ccccc3)nn2)[C@H](O)[C@@H](O)[C@@H]1O
4. O=S(=O)(O)OC[C@H]1O[C@@H](Oc2ccc(CO)cc2)[C@H](O)[C@@H](O)[C@@H]1O

Given back:
0.86
0.88
0.96
0.76
